List of apparent KD of MS2 coat protein values.
Test system: MS2 coat protein
Experiment: apparent KD of MS2 coat protein, switch ON state; designed switch direction (-1 OFF switch, 1 ON switch): -1; higher = weaker reporter binding
Details: FMN input: 0 or 200 uM; Eterna round: R93 (includes R88 designs)
State just the number; it will be interpreted in nM.

The cases that follow already have their apparent KD of MS2 coat protein on record.
chain="AAAACGGUAGGAUAUACAAUUGGGAACUAGACCGAAAAACCACAUGAGGAUCACCCAUGUAGAAGGGCCAAAAA [Ex2 Malc#12]" assayreadout="apparent KD of MS2 coat protein" readoutunit=nM result=39.2
chain="AAGAAGUGAGGAUAUCCAAAAGAAAAGAAAAGAAAAGAAAAGGAGAAGGCACAUGAGGAUCACCCAUGUAAGAA [Ankhkaenre Psamtik III]" assayreadout="apparent KD of MS2 coat protein" readoutunit=nM result=26.3
chain="AAAAAGGCAGGAUAUACAUGAGGAUCACCCAUGUAGUUGACAAAAAAGAGUCAACAGUGUAGAAGGGCCAAAAA [Exclusion3-cac1]" assayreadout="apparent KD of MS2 coat protein" readoutunit=nM result=18.1
chain="UACGUAUGAGGAUAUACAAACAGAAAAAUCAGACAUAACUGACAUGAGGAUCACCCAUGUAGAAGGCAUAUACA [JR_Exc002_Sub904]" assayreadout="apparent KD of MS2 coat protein" readoutunit=nM result=25.3
chain="UAAAAGGUAGGAUAUACUUGGAAGACCUGCCAACAAUAACAACAUGAGGAUCACCCAUGUAGAAGGACCAAUAU [Edtiatlema]" assayreadout="apparent KD of MS2 coat protein" readoutunit=nM result=23.2

input: Quick one: apparent KD of MS2 coat protein for UAGAAGGUAGGAUAUACUUGGGAAACUAAUGCAAAGAUAUAACAUGAGGAUCACCCAUGUAGAAGGGCCAGUAA [JR_Exc002_Sub018] ?
output: 114

====

System: K4 kissing-loop RNA reporter;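 also: bound reporter read as fluorescence of individual clusters on recovered sequencing chips by microscopy, with normalized cluster intensities fitted with a binding model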
Assay: apparent KD of K4 kissing-loop reporter; higher = weaker reporter binding
Settings: Eterna round: R107; input ligand: none
Tag: Yes if measured apparent KD of K4 kissing-loop reporter is not below 200 nM, No if it is.

Previously resolved entries follow.
chain="UCUAACGUUGAGGCGGCAGCGGGCCCAUCUAAGGAUAUCGGUUUACCGAGAAGGUAGUUGGACGAGAGUGAUGUUCUAUUGAGAG [theeternabot_sameState_KL_FMN_A_18]" discretelabel=Yes
chain="AUGUAUGAAUUAGGAUAUCGUGAGCCUUGCAUAUAUAUGAUAAAUGGAUAUGUCGUAGUGAUGUUACGAGAAGGAGUGUGGAGUA [KL-XFMN-B4]" discretelabel=No

input: Check this sequence for apparent KD of K4 kissing-loop reporter at or above 200 nM: AGUUUAUAGGAGGAUACCAGUACGGAUAAGGUACGUUAAUAGUAGAGUGAUGUUCUAAAGUACCCUUGGCAGCUUAGAUUGAGUU [#27 K4 Theophylline B Exclusion]
output: No

input: Continue with AUAUUGGUUGAGAGUGAUGUUCCUUGUGUUCGAGGACCGGUACGGCCGCCACUCGGGUAGAAAAUAAAAGAUAUGUUUGAUUUUU [BDazzled - #12 SS Tryptophan A]
output: Yes

input: Continue with AAACAUCACUGGGAGUGAUGUUCUCAGUGACGAGGACCGGUACGGCCGCCACUCGCGAGAGAUAUAGUUAAGUAAUGACUGCAUU [Excl Tryptophan A V7]
output: Yes

input: Continue with CGCAAGCAGCCAGUGAUGUUGGCCGCCUUGCGAGGACCGGUACGGCCGCCACUCGAAGGCGGCUACUGGUAAUCCGUCUAACGGA [Lareus]
output: No

input: Continue with UAAUUUAUCGCAGGAUAUAGCCAUAAACCGGUCCUAAGGGACCUUCUGGGCAGUGAUGUUGCCCGGCUAGAAGGGCGAGUUCACC [Anenlagema]
output: No

input: Continue with UGAUACCAGACUGAUACCAGCAGUGAUGUUGCUGAAAAUAAUAAAUGAGUCAAAGACUCGGGCCCUUGGCAGCAGUCUGGUAUCU [TheoBX 8 #SwitchBubble #StaticStem]
output: No

input: Continue with AAGGGCAGGACUUCCUUGCCGGAUAGAGAUACCAGCCCAGCAAAGGGCCCUUGGCAGCUCACUGACCUCAGUGAUGUUGAGGUUC [Xebisoer]
output: Yes
